Ref: patent US11420944B2

Target: human Cav3.2 channels (Homo sapiens)
Construct: expressed in transfected cells; host or cells: HEK293 cells (ATCC No. CRL-1573), plasmid pcDNA3.1(+)
Sequence (O95180 whole entry): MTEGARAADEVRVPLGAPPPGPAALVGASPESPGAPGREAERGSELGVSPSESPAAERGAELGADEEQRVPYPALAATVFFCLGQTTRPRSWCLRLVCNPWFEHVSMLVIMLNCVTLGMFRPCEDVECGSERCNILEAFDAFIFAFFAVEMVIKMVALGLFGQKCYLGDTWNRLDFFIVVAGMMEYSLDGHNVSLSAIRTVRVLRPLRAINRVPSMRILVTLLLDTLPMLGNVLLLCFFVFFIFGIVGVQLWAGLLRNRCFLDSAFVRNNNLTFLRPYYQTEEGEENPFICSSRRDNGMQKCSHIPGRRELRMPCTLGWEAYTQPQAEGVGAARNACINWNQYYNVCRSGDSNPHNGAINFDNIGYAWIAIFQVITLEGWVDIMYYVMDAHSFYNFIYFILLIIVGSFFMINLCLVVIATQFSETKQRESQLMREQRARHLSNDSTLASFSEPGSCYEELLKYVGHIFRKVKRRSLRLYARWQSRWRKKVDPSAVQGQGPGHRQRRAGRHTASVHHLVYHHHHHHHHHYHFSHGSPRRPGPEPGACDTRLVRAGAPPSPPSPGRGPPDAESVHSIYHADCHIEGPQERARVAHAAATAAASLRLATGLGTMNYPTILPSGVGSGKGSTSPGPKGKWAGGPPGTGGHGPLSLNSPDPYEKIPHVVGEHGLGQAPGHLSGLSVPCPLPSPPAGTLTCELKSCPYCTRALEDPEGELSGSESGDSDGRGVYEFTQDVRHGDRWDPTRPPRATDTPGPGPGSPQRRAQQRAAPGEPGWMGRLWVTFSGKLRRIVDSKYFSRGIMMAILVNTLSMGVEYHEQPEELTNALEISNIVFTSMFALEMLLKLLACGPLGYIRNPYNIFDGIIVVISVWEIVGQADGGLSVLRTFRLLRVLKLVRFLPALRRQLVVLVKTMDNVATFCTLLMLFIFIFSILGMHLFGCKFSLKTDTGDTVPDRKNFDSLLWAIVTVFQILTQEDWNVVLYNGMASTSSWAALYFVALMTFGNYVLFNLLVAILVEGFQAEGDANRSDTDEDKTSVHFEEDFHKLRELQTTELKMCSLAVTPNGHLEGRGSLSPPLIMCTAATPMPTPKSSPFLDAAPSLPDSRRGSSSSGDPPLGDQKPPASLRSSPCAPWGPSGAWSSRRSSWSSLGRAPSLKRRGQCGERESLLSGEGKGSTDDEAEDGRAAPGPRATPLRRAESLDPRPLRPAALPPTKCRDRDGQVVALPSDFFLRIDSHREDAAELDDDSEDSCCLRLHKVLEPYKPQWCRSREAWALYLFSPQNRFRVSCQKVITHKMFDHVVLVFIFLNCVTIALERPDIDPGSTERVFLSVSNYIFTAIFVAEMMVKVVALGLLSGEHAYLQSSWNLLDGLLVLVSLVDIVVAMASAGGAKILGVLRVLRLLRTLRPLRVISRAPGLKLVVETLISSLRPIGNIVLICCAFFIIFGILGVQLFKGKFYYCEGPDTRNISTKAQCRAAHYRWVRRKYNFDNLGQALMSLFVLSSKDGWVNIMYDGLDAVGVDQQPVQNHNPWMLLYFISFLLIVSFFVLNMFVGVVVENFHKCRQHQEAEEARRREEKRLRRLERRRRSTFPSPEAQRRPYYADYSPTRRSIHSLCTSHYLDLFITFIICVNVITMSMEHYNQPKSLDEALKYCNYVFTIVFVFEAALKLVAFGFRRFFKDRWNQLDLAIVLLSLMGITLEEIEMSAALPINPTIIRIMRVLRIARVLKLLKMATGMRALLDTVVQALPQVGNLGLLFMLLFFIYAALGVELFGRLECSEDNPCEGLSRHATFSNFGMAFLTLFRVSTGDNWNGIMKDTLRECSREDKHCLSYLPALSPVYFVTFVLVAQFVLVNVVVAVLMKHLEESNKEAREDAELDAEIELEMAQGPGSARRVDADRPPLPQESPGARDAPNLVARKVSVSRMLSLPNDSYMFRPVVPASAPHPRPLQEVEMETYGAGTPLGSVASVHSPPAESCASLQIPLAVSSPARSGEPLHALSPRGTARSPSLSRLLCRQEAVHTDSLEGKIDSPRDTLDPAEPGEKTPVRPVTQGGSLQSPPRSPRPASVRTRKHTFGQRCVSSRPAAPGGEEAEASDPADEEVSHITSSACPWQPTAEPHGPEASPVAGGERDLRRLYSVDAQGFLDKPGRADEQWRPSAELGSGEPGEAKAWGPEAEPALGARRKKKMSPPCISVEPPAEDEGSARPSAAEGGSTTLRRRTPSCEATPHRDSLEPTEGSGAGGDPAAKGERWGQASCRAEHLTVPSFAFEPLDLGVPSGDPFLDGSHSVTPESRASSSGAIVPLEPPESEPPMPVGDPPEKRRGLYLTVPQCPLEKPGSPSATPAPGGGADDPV
Assay: Electrophysiological evaluation, whole-cell patch-clamp with automatic patch-clamp system
Format: cell-based
Conditions: 0.3 μM, holding potential −80 mV; read-out: Cav3.2 channel current inhibition ratio at 0.3 μM of test compound (holding potential −80 mV)
experimental.readout: inhibition at 0.3 µM (%)

C[C@@H](NC(=O)[C@H]1C[C@@H]1c1nc2ccccc2[nH]1)c1nc2ccc(F)cc2o1 : 32
C[C@@H](NC(=O)[C@H]1C[C@@H]1c1nc2ccccc2[nH]1)c1cc2cc(F)ccc2[nH]1 : 91
C[C@@H](NC(=O)C1CC1c1ncc2ccccn12)c1cc2cc(F)ccc2o1 (single isomer, unassigned) [Example 117A] : 70

A: C[C@@H](NC(=O)[C@H]1C[C@@H]1c1nc2ccccc2[nH]1)c1cc2cc(F)cc(F)c2o1
B: C[C@@H](NC(=O)[C@H]1C[C@@H]1c1nc2ccccc2[nH]1)c1cc2cc(F)ccc2o1
-- ask Which shows the larger inhibition at 0.3 µM value: A or B ? Label of pick, please.
-- reply B
